Assign abundance fitness to each entry below.
B1: Spectrin alpha chain, erythrocytic 1, residues 979 to 1036; numbered along this chain, P02549 (parent)
chain: EQRVMALYDFQARSPREVTMKKGDVLTLLSSINKDWWKVEAADHQGIVPAVYVRRLAH

- Variants of: B1
- Assay Text: abundance fitness (aPCA) (normalised: wild type 0, dead -1); higher = more abundant; growth selection in yeast, the domain comes from the species named
- Applied Conditions: Homo sapiens

Name the recorded abundance fitness for `L7A` .
-0.609

Name the recorded abundance fitness for `A12L` .
-0.964

Name the recorded abundance fitness for `Q11M` .
-0.314

Name the recorded abundance fitness for `L29W` .
-0.111

Name the recorded abundance fitness for `E1D` .
0.242

Name the recorded abundance fitness for `T19R` .
-0.744

Name the recorded abundance fitness for `V51F` .
0.246

Name the recorded abundance fitness for `L29P` .
0.075

Name the recorded abundance fitness for `W37R` .
-0.267

Name the recorded abundance fitness for `A6R` .
-0.767

Name the recorded abundance fitness for `Q45V` .
0.1

Name the recorded abundance fitness for `V48W` .
-0.809

Name the recorded abundance fitness for `Q45A` .
-0.171

Name the recorded abundance fitness for `L56T` .
-0.448

Name the recorded abundance fitness for `A57V` .
-0.47

Name the recorded abundance fitness for `V48Q` .
-0.656

Name the recorded abundance fitness for `T19N` .
-0.122

Name the recorded abundance fitness for `L56R` .
-0.874

Name the recorded abundance fitness for `M20F` .
-0.681

Name the recorded abundance fitness for `V51K` .
0.525

Name the recorded abundance fitness for `S30T` .
-0.632

Name the recorded abundance fitness for `T27K` .
0.229

Name the recorded abundance fitness for `D43W` .
-0.622

Name the recorded abundance fitness for `V51H` .
0.216

Name the recorded abundance fitness for `A57Q` .
0.18

Name the recorded abundance fitness for `H58S` .
0.088

Name the recorded abundance fitness for `A41R` .
0.049

Name the recorded abundance fitness for `M20V` .
-0.22

Name the recorded abundance fitness for `I47S` .
-0.659

Name the recorded abundance fitness for `G46S` .
-1.04

Name the recorded abundance fitness for `A50W` .
-0.879

Name the recorded abundance fitness for `W36E` .
0.664

Name the recorded abundance fitness for `E1G` .
-0.425

Name the recorded abundance fitness for `V4T` .
-1.04

Name the recorded abundance fitness for `W36V` .
-0.554

Name the recorded abundance fitness for `Y52M` .
-0.045

Name the recorded abundance fitness for `S30D` .
-0.013

Name the recorded abundance fitness for `V4M` .
-0.716

Name the recorded abundance fitness for `T19V` .
-0.822

Name the recorded abundance fitness for `L26A` .
-0.493

Name the recorded abundance fitness for `A6M` .
-0.915

Name the recorded abundance fitness for `G46E` .
-0.023

Name the recorded abundance fitness for `L56A` .
-0.882

Name the recorded abundance fitness for `A57T` .
-0.022

Name the recorded abundance fitness for `H44Q` .
0.119

Name the recorded abundance fitness for `A50D` .
-0.872

Name the recorded abundance fitness for `D9W` .
-1.02

Name the recorded abundance fitness for `S31F` .
-0.47

Name the recorded abundance fitness for `D24S` .
-0.256

Name the recorded abundance fitness for `R3P` .
-0.94

Name the recorded abundance fitness for `P49Q` .
-0.898

Name the recorded abundance fitness for `P49T` .
-0.477

Name the recorded abundance fitness for `L28I` .
0.024

Name the recorded abundance fitness for `E17W` .
-0.8

Name the recorded abundance fitness for `V51L` .
-0.083

Name the recorded abundance fitness for `M5N` .
-0.512

Name the recorded abundance fitness for `D9N` .
-0.651

Name the recorded abundance fitness for `K34H` .
0.231

Name the recorded abundance fitness for `H44G` .
0.292

Name the recorded abundance fitness for `G46V` .
-1.03

Name the recorded abundance fitness for `Q2S` .
-0.822

Name the recorded abundance fitness for `V39S` .
-0.886

Name the recorded abundance fitness for `T19Q` .
-0.476

Name the recorded abundance fitness for `K34G` .
-0.415

Name the recorded abundance fitness for `S30C` .
-0.337

Name the recorded abundance fitness for `V48M` .
-0.556

Name the recorded abundance fitness for `R13C` .
-0.316

Name the recorded abundance fitness for `A12V` .
-0.848

Name the recorded abundance fitness for `Y52H` .
-0.368

Name the recorded abundance fitness for `Q11I` .
-0.419

Name the recorded abundance fitness for `Q45C` .
-0.103

Name the recorded abundance fitness for `L28G` .
-0.756

Name the recorded abundance fitness for `H58P` .
0.358

Name the recorded abundance fitness for `R3K` .
0.226

Name the recorded abundance fitness for `E40V` .
-0.573

Name the recorded abundance fitness for `E40D` .
-0.388

Name the recorded abundance fitness for `N33V` .
-0.833

Name the recorded abundance fitness for `A12W` .
-0.804

Name the recorded abundance fitness for `M20A` .
-0.791

Name the recorded abundance fitness for `G46L` .
-0.227

Name the recorded abundance fitness for `Q11S` .
-0.372

Name the recorded abundance fitness for `T19P` .
-0.613

Name the recorded abundance fitness for `R13M` .
-0.751

Name the recorded abundance fitness for `R3T` .
-0.778

Name the recorded abundance fitness for `Y52P` .
-0.075

Name the recorded abundance fitness for `D43L` .
-0.876

Name the recorded abundance fitness for `E17T` .
-0.729

Name the recorded abundance fitness for `Y52E` .
-0.165

Name the recorded abundance fitness for `S31I` .
0.495

Name the recorded abundance fitness for `V4L` .
-0.537

Name the recorded abundance fitness for `M20I` .
-0.554
